Test system: VCaP cells
assay_overview: VCaP growth inhibition assay
Type: cell-based
condition_summary: 30 pM R1881, 9 days, CTG
Experimental: VCaP cells (ATCC Cat #CRL-2876) are plated at 1×10^4 cells per well of a white plastic 96-well cluster plate (Thermo Scientific Nunc Cat #165306) in 100 uL phenol red-free DMEM (Gibco Cat #21063-029) media with 5% CSS (Omega Scientific Cat #FB-04). Cluster plates are returned to the incubator (37*C/5% CO2) for 72 hours prior to treatment. […]
pIC50: −log10 of the molar value.
pIC50 overview

Check out these entries, answers already filled in.
>>> result_value("CC(=O)N1CCc2c(c(N3CCCc4cc(-c5cnn(C)c5)c(C(F)F)cc43)nn2C2CCN(C3CN(c4ncc(C(=O)NC5C(C)(C)C(Oc6ccc(C#N)c(Cl)c6)C5(C)C)cn4)C3)CC2)C1 (centres unmarked)")
"≥ 10.00"
>>> result_value("COc1cc(OC2C(C)(C)C(NC(=O)c3ccc(N4CCC5(CC4)CC(Oc4ccc(-c6cc7c(cc6C(F)F)N(c6nn(C8CCOCC8)c8c6CN(C(C)=O)CC8)CCC7)cn4)C5)cc3)C2(C)C)ccc1C#N (centres unmarked)")
"7.00 to 9.00"
>>> result_value("CC(=O)N1CCc2c(c(N3CCCc4cc(-c5cnn(C)c5)c(C(F)F)cc43)nn2C2CC3(C2)CN(C(=O)C2CC4(C2)CN(c2ncc(C(=O)NC5C(C)(C)C(Oc6ccc(C#N)c(Cl)c6)C5(C)C)cn2)C4)C3)C1 (centres unmarked)")
"9.00 to 10.00"
>>> result_value("CC(=O)N1CCc2c(c(N3CCCc4cc(-c5cnn(C)c5)c(C(F)F)cc43)nn2C2CCN(c3ncc(C(=O)NC4C(C)(C)C(Oc5ccc(C#N)c(Cl)c5)C4(C)C)cn3)CC2)C1 (centres unmarked)")
"9.00 to 10.00"

Let us move to another entry and its pIC50.
Query :: Would you kindly share the measured pIC50 for COc1cc(OC2C(C)(C)C(NC(=O)c3ccc(N4CCC(C(=O)N5CCC(n6nc(-c7cccc8cc(C9CC9)c(C(F)F)cc78)c7c6CCN(C(C)=O)C7)CC5)CC4)cc3)C2(C)C)ccc1C#N (centres unmarked) ?
Result :: 9.00 to 10.00

###

Test system: VCaP cells
assay_overview: VCaP growth inhibition assay
Assay type: cell-based
condition_summary: 30 pM R1881, 9 days, CTG
IC50 overview

Check out these entries, answers already filled in.
>>> result_value("CC(=O)N1CCc2c(c(N3CCCc4cc(-c5cnn(C)c5)c(C(F)F)cc43)nn2C2CCN(CC3CCN(c4ncc(C(=O)NC5C(C)(C)C(Oc6ccc(C#N)c(Cl)c6)C5(C)C)cn4)CC3)CC2)C1 (centres unmarked) [Compound 84]")
"≤ 0.1 nM"
>>> result_value("CC(=O)N1CCc2c(c(-c3cccc4cc(-c5ccc(CC6CC7(C6)CN(c6ncc(C(=O)NC8C(C)(C)C(Oc9ccc(C#N)c(Cl)c9)C8(C)C)cn6)C7)nc5)ncc34)nn2C)C1 (centres unmarked) [Compound 230]")
"0.1 to 1 nM"
>>> result_value("CC(=O)N1CCc2c(c(N3CCCc4cc(-c5cnn(C)c5)c(C(F)F)cc43)nn2C2CCN(C(=O)OC3CCN(c4ncc(C(=O)NC5C(C)(C)C(Oc6ccc(C#N)c(Cl)c6)C5(C)C)cn4)CC3)CC2)C1 (centres unmarked) [Compound 70]")
"0.1 to 1 nM"
>>> result_value("CC(=O)N1CCc2c(c(N3CCCc4cc(-c5cnn(C)c5)c(C(F)F)cc43)nn2C2CCN(C3CC(Oc4ncc(C(=O)NC5C(C)(C)C(Oc6ccc(C#N)c(Cl)c6)C5(C)C)cn4)C3)CC2)C1 (centres unmarked) [Compound 376]")
"0.1 to 1 nM"

Let us move to another entry and its IC50.
Query :: Would you kindly share the measured IC50 for COc1cc(OC2C(C)(C)C(NC(=O)c3ccc(N4CCC(N5CCC(n6cc(-c7cc8cccc(-c9nn(C%10CCOCC%10)c%10c9CN(C(C)=O)CC%10)c8cn7)cn6)CC5)CC4)cc3)C2(C)C)ccc1C#N (centres unmarked) [Compound 270] ?
Result :: 0.1 to 1 nM

###

pIC50 overview
Tested on: VCaP cells
assay_overview: VCaP growth inhibition assay
Assay type: cell-based
condition_summary: 30 pM R1881, 9 days, CTG
pIC50: −log10 of the molar value.

Check out these entries, answers already filled in.
>>> result_value("CC(=O)N1CCc2c(c(N3CCCc4cc(-c5cnn(C)c5)c(C)cc43)nn2C2CCN(CC3C(C)CN(c4ncc(C(=O)NC5C(C)(C)C(Oc6ccc(C#N)c(Cl)c6)C5(C)C)cn4)CC3C)CC2)C1 (stereo not drawn)")
"9.00 to 10.00"
>>> result_value("CC(=O)N1CCc2c(c(N3CCCc4cc(-c5cnn(C)c5)c(C(F)F)cc43)nn2C2CCN(C3CCC4(CC3)CN(c3ncc(C(=O)NC5C(C)(C)C(Oc6ccc(C#N)c(Cl)c6)C5(C)C)cn3)C4)CC2)C1 (stereo not drawn)")
"≥ 10.00"
>>> result_value("COc1cc(OC2C(C)(C)C(NC(=O)c3ccc(N4CCN(CCn5cc(-c6cc7cccc(-c8nn(C9CCOCC9)c9c8CN(C(C)=O)CC9)c7cn6)cn5)CC4)cc3)C2(C)C)ccc1C#N (stereo not drawn)")
"9.00 to 10.00"
>>> result_value("CC(=O)N1CCc2c(c(N3CCCc4cc(-c5cnn(C)c5)c(C(F)F)cc43)nn2C2CCN(CCOC3CCN(c4ncc(C(=O)NC5C(C)(C)C(Oc6ccc(C#N)c(Cl)c6)C5(C)C)cn4)CC3)CC2)C1 (stereo not drawn)")
"9.00 to 10.00"
>>> result_value("CC(=O)N1CCc2c(c(N3CCCc4cc(-c5cnn(C)c5)c(C(F)F)cc43)nn2C2CCN(C(=O)CC3CCN(c4ncc(C(=O)NC5C(C)(C)C(Oc6ccc(C#N)c(Cl)c6)C5(C)C)cn4)CC3)CC2)C1 (stereo not drawn)")
"≥ 10.00"
>>> result_value("COc1cc(OC2C(C)(C)C(NC(=O)c3ccc(N4CC5(CCN(C6CCC(n7nc(N8CCCc9cc(-c%10cnn(C)c%10)c(C(F)F)cc98)c8c7CCN(C(C)=O)C8)CC6)CC5)C4)cc3)C2(C)C)ccc1C#N (stereo not drawn)")
"≥ 10.00"

Query :: Would you kindly share the measured pIC50 for CC(=O)N1CCc2c(c(Nc3ccc(-c4cnn(C)c4)cc3F)nn2CCOC2CCN(c3ncc(C(=O)NC4C(C)(C)C(Oc5ccc(C#N)c(Cl)c5)C4(C)C)cn3)CC2)C1 (stereo not drawn) ?
Result :: 7.00 to 9.00

Query :: Would you kindly share the measured pIC50 for CC(=O)N1CCc2c(c(N3CCCc4cc(-c5cnn(C)c5)c(C(F)F)cc43)nn2C2CCN(CC3CCN(c4ncc(C(=O)NC5C(C)(C)C(Oc6ccc(C#N)c(Cl)c6)C5(C)C)cn4)CC34CC4)CC2)C1 (stereo not drawn) ?
Result :: ≥ 10.00

Query :: Would you kindly share the measured pIC50 for CC(=O)N1CCc2c(c(N3CCCc4cc(-c5cnn(C)c5)c(C(F)F)cc43)nn2C2CCN(C3CCN(c4ncc(C(=O)NC5C(C)(C)C(Oc6ccc(C#N)c(Cl)c6)C5(C)C)cn4)CC3)C2)C1 (stereo not drawn) ?
Result :: 7.00 to 9.00

###

Tested on: VCaP cells
assay_overview: VCaP growth inhibition assay
Assay type: cell-based
condition_summary: 30 pM R1881, 9 days, CTG
pIC50: −log10 of the molar value.
assay_endpoint: pIC50

>>> result_value("CC(=O)N1CCc2c(c(-c3cccc4cc(-c5cnc(C(=O)NCc6ncc(C(=O)NC7C(C)(C)C(Oc8ccc(C#N)c(Cl)c8)C7(C)C)cn6)nc5)ncc34)nn2C2CCOCC2)C1 (stereo not drawn)")
"9.00 to 10.00"

Query :: Write down the reported pIC50 of CC(=O)N1CCc2c(c(N3CCCc4cc(-c5cnn(C)c5)c(C(F)F)cc43)nn2CCN(C)c2ncc(C(=O)NC3C(C)(C)C(Oc4ccc(C#N)c(Cl)c4)C3(C)C)cn2)C1 (stereo not drawn) , test system: VCaP cells.
Result :: < 7.00

Query :: Write down the reported pIC50 of CNC(=O)N1CCc2c(c(N3CCCc4cc(-c5cnn(C)c5)c(C(F)F)cc43)nn2C2CCN(C(=O)CN3CCN(c4ncc(C(=O)NC5C(C)(C)C(Oc6ccc(C#N)c(Cl)c6)C5(C)C)cn4)CC3)CC2)C1 (stereo not drawn) , test system: VCaP cells.
Result :: ≥ 10.00

###

Tested on: VCaP cells
assay_overview: VCaP growth inhibition assay
Format: cell-based
condition_summary: 30 pM R1881, 9 days, CTG
pIC50: −log10 of the molar value.
pIC50 overview

Check out these entries, answers already filled in.
>>> result_value("CC(=O)N1CCc2c(c(Nc3ccc(-c4cnn(C)c4)cc3F)nn2C2CCN(C(=O)CC3CCN(c4ncc(C(=O)NC5C(C)(C)C(Oc6ccc(C#N)c(Cl)c6)C5(C)C)cn4)CC3)CC2)C1 (stereo not drawn)")
"9.00 to 10.00"
>>> result_value("C[C@@H]1CC(=O)Nc2cccc(-c3ccc4c(c3)c(-c3cnn(C)c3)nn4CCCN(C)c3ncc(C(=O)NC4C(C)(C)C(Oc5ccc(C#N)c(Cl)c5)C4(C)C)cn3)c2N1 (stereo partly drawn)")
"9.00 to 10.00"

Let us move to another entry and its pIC50.
Query :: Would you kindly share the measured pIC50 for CC(=O)N1CCc2c(c(N3CCCc4ccccc43)nn2C2CCN(C(=O)C3CCN(c4ncc(C(=O)NC5C(C)(C)C(Oc6ccc(C#N)c(Cl)c6)C5(C)C)cn4)CC3)CC2)C1 (stereo not drawn) ?
Result :: ≥ 10.00
